endpoint.label: melting point

Could you tell me which melting point is on file for CS(=O)(=O)c1ccc(N2N=CCC2c2ccccc2)cc1 (centres unmarked) [Example 32] ?
197 to 202 °C

Please do the same for NS(=O)(=O)c1ccc(N2N=C(C(F)(F)F)CC2c2ccccc2Cl)cc1 (centres unmarked) [Example 60] as well.
157 to 159 °C

Please do the same for CC1=NN(c2ccc(S(N)(=O)=O)cc2)C(c2ccc(F)cc2)C1 (centres unmarked) [Example 26] as well.
206 to 208 °C

Please do the same for CS(=O)(=O)c1ccc(C2CC(C(F)(F)F)=NN2c2cccc(F)c2)cc1 (centres unmarked) [Example 69] as well.
116 to 117 °C

Please do the same for COc1cc(F)ccc1C1CC(C(F)(F)F)=NN1c1ccc(S(N)(=O)=O)cc1 (centres unmarked) [Example 49] as well.
179 to 182 °C

Please do the same for Cc1ccc(C2CC(C(F)(F)F)=NN2c2ccc(S(N)(=O)=O)cc2)cc1 (centres unmarked) [Example 1] as well.
140 to 143 °C

Please do the same for Cc1ccc(C2CC(C(=O)O)=NN2c2ccc(S(N)(=O)=O)cc2)cc1 (centres unmarked) [Example 34] as well.
172 to 176 °C

Please do the same for CS(=O)(=O)c1ccc(C2CC(C(F)(F)F)=NN2c2ccccc2)cc1 (centres unmarked) [Example 66] as well.
114 to 115 °C

Please do the same for CC1=NN(c2ccc(S(N)(=O)=O)cc2)C(c2ccc(C)cc2)C1 (centres unmarked) [Example 28] as well.
195 to 197 °C

Please do the same for CS(=O)(=O)c1ccc(C2CC(C(F)(F)F)=NN2c2ccc(Cl)cc2)cc1 (centres unmarked) [Example 65] as well.
117 to 121 °C

Please do the same for NS(=O)(=O)c1ccc(N2N=C(C(F)(F)F)CC2c2cccc(F)c2F)cc1 (centres unmarked) [Example 23] as well.
152 to 154 °C
